Reference source: ChEMBL document CHEMBL4725427

target: 3',5'-cyclic-AMP phosphodiesterase 4B (Homo sapiens, UniProt Q07343); assay: Inhibition of recombinant human C-terminal His-tagged N-terminal GST-tagged PDE4B2 expressed in baculovirus infected Sf9 cells at 10 uM by radioligand binding assay relative to control
Sequence (Q07343 whole entry): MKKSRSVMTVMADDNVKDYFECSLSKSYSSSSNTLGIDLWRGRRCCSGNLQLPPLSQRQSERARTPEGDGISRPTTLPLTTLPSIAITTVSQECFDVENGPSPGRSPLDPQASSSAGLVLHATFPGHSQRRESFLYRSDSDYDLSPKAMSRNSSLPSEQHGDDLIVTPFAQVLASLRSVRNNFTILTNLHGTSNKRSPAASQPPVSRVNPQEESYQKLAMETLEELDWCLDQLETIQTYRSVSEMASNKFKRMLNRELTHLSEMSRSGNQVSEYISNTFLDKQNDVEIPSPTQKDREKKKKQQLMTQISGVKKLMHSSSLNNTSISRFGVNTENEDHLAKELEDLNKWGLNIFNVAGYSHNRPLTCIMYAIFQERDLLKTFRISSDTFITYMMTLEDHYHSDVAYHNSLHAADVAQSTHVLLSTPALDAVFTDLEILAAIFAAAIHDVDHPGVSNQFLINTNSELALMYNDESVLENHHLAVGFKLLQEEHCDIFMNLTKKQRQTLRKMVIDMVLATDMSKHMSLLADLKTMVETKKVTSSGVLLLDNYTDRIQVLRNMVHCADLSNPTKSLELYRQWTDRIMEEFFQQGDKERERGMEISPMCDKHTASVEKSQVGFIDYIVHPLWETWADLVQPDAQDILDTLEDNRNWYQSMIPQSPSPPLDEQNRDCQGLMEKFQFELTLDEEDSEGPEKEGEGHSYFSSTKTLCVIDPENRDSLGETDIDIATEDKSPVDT
ASSAY ENDPOINT: inhibition (%)

>  <STRUCTURE>
COc1c(F)cc(-n2c(C(=O)N3CC(F)(F)C3)cc3cccnc32)cc1F

>  <ASSAY RESULT>
35

$$$$
>  <STRUCTURE>
O=C(c1cc2ccccc2n1-c1ccc(Cl)c(Cl)c1)N1CC(F)C1

>  <ASSAY RESULT>
58

$$$$
>  <STRUCTURE>
Cc1ccc(-n2c(C(=O)N3CC(F)(F)C3)cc3cccnc32)cc1Cl

>  <ASSAY RESULT>
47

$$$$
>  <STRUCTURE>
O=C(c1cc2cccnc2n1Cc1ccc(Cl)c(Cl)c1)N1CC(F)C1

>  <ASSAY RESULT>
72

$$$$

A: COc1ccc(-n2c(C(=O)N3CC(F)C3)cc3cccnc32)cc1
B: N#Cc1c(F)cc(-n2c(C(=O)N3CC(F)(F)C3)cc3cccnc32)cc1F
Exam item: Given A and B , report the one with the higher recorded inhibition. Please identify the chosen entry by its label.
Marked response: A
